# Test system: xanthine oxidase
# method: Effect of allopurinol predosing on PZA and POA exposure in NZW rabbits
# Assay type: in vivo, rabbit
# settings: female, New Zealand white, rabbit, plasma, 40 mg/kg
readout name: AUC (ng·h/mL)

* O=c1[nH]c(=O)c2c[nH]nc2[nH]1 | 124000
* Oc1ncnc2[nH]ncc12 | 8000

---

# method: Plasma pharmacokinetics of oral PZA or POA in naïve guinea pigs
# settings: female, Hartley, guinea pig, in vivo, po, 300 mg/kg
readout name: Vd/F (L/kg)

* NC(=O)c1cnccn1 [PZA, pyrazinamide] | 2.54

---

# method: Plasma pharmacokinetics of oral PZA or POA in naïve guinea pigs
# settings: female, Hartley, guinea pig, in vivo, po, 300 mg/kg
readout name: AUC (µg·h/mL)

• O=C(O)c1cnccn1 = 449
• NC(=O)c1cnccn1 [PZA, pyrazinamide] = 342

---

# method: in vivo
# settings: BALB/c, mouse, po, 150 mg/kg
readout name: AUC (µg·h/mL)

* NC(=O)c1cnccn1 [PZA, pyrazinamide] | 388

---

# method: Plasma pharmacokinetics of PZA and POA metabolite in uninfected marmosets
# settings: monkey, in vivo, po, 125 mg/kg
readout name: k el (s⁻¹)

• NC(=O)c1cnccn1 [PZA, pyrazinamide] = 5.83e-05

---

# method: in vivo
# settings: C3HeB/FeJ, mouse, po, 150 mg/kg
readout name: AUC (µg·h/mL)

* NC(=O)c1cnccn1 [PZA, pyrazinamide] | 425

---

# method: Plasma pharmacokinetics of PZA and POA metabolite in uninfected marmosets
# settings: monkey, in vivo, po, 125 mg/kg
readout name: Vd/F (L/kg)

• NC(=O)c1cnccn1 [PZA, pyrazinamide] = 1.1

---

# method: Plasma pharmacokinetics of oral PZA or POA in naïve New Zealand white rabbits
# Assay type: in vivo, rabbit
# settings: female, New Zealand white, rabbit, plasma, po, 300 mg/kg
readout name: AUC (µg·h/mL)

* NC(=O)c1cnccn1 [PZA, pyrazinamide] | 457

---

# method: in vivo
# settings: female, C3HeB/FeJ, mouse, plasma, po, 150 mg/kg
readout name: CL/F (mL/min/kg)

• NC(=O)c1cnccn1 [PZA, pyrazinamide] = 10.3

---

# method: Plasma pharmacokinetics of PZA and POA metabolite in uninfected marmosets
# settings: marmoset (Callithrix jacchus), in vivo, po, 125 mg/kg
readout name: AUC (µg·h/mL)

- NC(=O)c1cnccn1 [PZA, pyrazinamide]: 743

---

# method: in vivo
# settings: female, CD-1, mouse, plasma, po, 150 mg/kg
readout name: CL/F (mL/min/kg)

* NC(=O)c1cnccn1 [PZA, pyrazinamide] | 12.5

---

# method: in vivo
# settings: female, CD-1, mouse, plasma, po, 150 mg/kg
readout name: k el (s⁻¹)

- NC(=O)c1cnccn1 [PZA, pyrazinamide]: 0.000161

---

# method: in vivo
# settings: female, CD-1, mouse, plasma, po, 150 mg/kg
readout name: Vd/F (L/kg)

• NC(=O)c1cnccn1 [PZA, pyrazinamide] = 1.28

---

# method: in vivo
# settings: female, New Zealand white (NZW), rabbit, po, 250 mg/kg
readout name: AUC (µg·h/mL)

- NC(=O)c1cnccn1 [PZA, pyrazinamide]: 296

---

# method: Plasma pharmacokinetics of PZA and POA metabolite in uninfected marmosets
# settings: monkey, in vivo, po, 125 mg/kg
readout name: CL/F (mL/min/kg)

- NC(=O)c1cnccn1 [PZA, pyrazinamide]: 3.83

---

# method: Plasma pharmacokinetics of oral PZA or POA in naïve New Zealand white rabbits
# Assay type: in vivo, rabbit
# settings: female, New Zealand white, rabbit, plasma, po
readout name: k el (s⁻¹)

- NC(=O)c1cnccn1 [PZA, pyrazinamide]: 5.56e-05

---

Reported clearance values follow for various compounds
# Format: in vivo, human
# settings: both, human, plasma, oral, 1500 mg
readout name: clearance

- NC(=O)c1cnccn1 [PZA, pyrazinamide]: 28.3 mL/min
- O=C(O)c1cnccn1: 31.7 mL/min

---

# method: in vivo
# settings: female, CD-1, mouse, plasma, po, 150 mg/kg
Reported AUC values follow for various compounds
readout name: AUC

- O=C(O)c1cnccn1: 136 µg·h/mL
- NC(=O)c1cnccn1 [PZA, pyrazinamide]: 210 µg·h/mL

---

# method: in vivo
# settings: female, BALB/c, mouse, po, 150 mg/kg
readout name: CL/F

* NC(=O)c1cnccn1 [PZA, pyrazinamide] | 7.83 mL/min/kg

---

# method: Plasma pharmacokinetics of oral PZA or POA in naïve New Zealand white rabbits
# Type: in vivo, rabbit
# settings: female, New Zealand white, rabbit, plasma, po
readout name: CL/F (mL/min/kg)

* NC(=O)c1cnccn1 [PZA, pyrazinamide] | 12.5

---

# method: Plasma pharmacokinetics of oral PZA or POA in naïve New Zealand white rabbits
# Format: in vivo, rabbit
# settings: female, New Zealand white, rabbit, plasma, po, 200 mg/kg
readout name: AUC

* O=C(O)c1cnccn1 | 2010 µg·h/mL

---

# method: in vivo
# settings: female, C3HeB/FeJ, mouse, plasma, po, 150 mg/kg
readout name: k el (s⁻¹)

- NC(=O)c1cnccn1 [PZA, pyrazinamide]: 0.000169

---

# method: in vivo
# settings: female, BALB/c, mouse, po, 150 mg/kg
readout name: k el (s⁻¹)

* NC(=O)c1cnccn1 [PZA, pyrazinamide] | 0.000167

---

# Assay type: in vivo, human
# settings: both, human, plasma, po, 1500 mg
readout name: Vd/F (L/kg)

* NC(=O)c1cnccn1 [PZA, pyrazinamide] | 0.49

---

# Format: in vivo, human
# settings: both, human, plasma, po
readout name: AUC

* NC(=O)c1cnccn1 [PZA, pyrazinamide] | 617 to 738 µg·h/mL

---

# method: in vivo
# settings: female, BALB/c, mouse, po, 150 mg/kg
readout name: AUC

- O=C(O)c1cnccn1: 287 µg·h/mL

---

# method: Plasma pharmacokinetics of oral PZA or POA in naïve guinea pigs
# settings: female, Hartley, guinea pig, in vivo, po, 300 mg/kg
readout name: CL/F (mL/min/kg)

- NC(=O)c1cnccn1 [PZA, pyrazinamide]: 12.5
